Data provenance is ChEMBL document CHEMBL2176883.

System Name: Cav1.2 (Homo sapiens)
Sequence (Q13936 whole entry): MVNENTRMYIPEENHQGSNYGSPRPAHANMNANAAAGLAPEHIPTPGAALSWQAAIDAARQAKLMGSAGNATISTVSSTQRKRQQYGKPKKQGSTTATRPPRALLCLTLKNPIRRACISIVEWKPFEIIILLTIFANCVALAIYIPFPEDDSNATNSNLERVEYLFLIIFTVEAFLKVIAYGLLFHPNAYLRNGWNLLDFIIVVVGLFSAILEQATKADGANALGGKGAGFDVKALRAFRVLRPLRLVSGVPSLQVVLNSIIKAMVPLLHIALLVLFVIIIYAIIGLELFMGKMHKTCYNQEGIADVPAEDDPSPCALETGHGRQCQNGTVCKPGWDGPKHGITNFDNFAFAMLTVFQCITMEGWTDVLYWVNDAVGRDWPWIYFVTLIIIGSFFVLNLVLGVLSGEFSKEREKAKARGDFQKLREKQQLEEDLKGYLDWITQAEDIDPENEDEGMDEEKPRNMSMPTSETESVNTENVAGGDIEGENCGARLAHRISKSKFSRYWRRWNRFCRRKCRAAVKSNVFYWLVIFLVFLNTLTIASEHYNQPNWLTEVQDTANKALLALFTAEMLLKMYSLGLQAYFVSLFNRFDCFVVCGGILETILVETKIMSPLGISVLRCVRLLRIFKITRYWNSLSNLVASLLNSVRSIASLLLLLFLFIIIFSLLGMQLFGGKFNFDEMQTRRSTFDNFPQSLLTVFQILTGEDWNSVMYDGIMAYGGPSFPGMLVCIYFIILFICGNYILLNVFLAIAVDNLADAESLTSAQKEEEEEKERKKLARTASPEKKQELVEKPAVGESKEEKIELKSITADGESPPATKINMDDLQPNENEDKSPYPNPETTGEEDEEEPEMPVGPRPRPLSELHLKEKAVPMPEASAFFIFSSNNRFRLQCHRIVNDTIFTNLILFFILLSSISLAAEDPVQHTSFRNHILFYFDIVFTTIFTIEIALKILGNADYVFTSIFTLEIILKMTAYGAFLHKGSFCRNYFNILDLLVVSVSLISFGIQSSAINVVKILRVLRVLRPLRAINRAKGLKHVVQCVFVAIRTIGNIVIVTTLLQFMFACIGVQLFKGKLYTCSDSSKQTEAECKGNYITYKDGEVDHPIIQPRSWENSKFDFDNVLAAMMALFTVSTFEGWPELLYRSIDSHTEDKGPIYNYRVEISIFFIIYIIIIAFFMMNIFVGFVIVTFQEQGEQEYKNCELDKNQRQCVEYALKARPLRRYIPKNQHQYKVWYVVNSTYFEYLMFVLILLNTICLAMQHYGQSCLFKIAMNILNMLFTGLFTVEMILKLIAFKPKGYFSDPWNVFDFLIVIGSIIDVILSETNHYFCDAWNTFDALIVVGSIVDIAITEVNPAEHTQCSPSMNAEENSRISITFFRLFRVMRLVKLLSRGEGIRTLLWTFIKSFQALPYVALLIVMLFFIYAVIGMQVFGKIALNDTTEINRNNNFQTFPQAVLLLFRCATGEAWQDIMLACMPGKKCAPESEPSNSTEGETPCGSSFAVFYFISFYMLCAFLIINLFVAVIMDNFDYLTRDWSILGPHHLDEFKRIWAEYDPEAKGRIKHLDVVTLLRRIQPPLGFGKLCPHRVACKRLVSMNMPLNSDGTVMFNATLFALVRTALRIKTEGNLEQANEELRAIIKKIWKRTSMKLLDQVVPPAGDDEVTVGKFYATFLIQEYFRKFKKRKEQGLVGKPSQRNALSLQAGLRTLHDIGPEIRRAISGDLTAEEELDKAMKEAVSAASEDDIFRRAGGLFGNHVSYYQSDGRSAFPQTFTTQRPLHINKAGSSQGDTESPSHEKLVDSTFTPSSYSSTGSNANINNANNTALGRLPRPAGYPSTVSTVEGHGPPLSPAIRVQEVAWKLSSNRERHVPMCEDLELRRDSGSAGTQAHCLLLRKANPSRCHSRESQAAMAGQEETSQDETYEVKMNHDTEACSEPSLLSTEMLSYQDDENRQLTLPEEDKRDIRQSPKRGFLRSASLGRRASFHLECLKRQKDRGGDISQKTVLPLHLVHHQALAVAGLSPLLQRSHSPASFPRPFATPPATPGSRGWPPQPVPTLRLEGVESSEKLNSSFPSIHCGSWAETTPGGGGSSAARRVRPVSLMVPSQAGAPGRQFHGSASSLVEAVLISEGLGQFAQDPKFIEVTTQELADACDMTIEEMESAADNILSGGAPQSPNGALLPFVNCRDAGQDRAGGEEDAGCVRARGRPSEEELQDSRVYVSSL
Measurement Description: Inhibition of Cav1.2 assessed as inhibition of calcium flux at 3 uM by cell based FLIPR assay
We use 60% as the dividing line for inhibition at 3 µM: on or above the line is True, below is False.

Item NC(=O)c1ccccc1C(=O)N1CCC(N(C2CC2)S(=O)(=O)c2cccc(C(F)(F)F)c2)CC1 with inhibition at 3 µM of 60% or above?
False

And for NC(=O)c1ccc(C(=O)N2CCC(N(C3CC3)S(=O)(=O)c3cccc(C(F)(F)F)c3)CC2)cc1 ?
False

And what about the compound O=C(c1ccc(OC(F)(F)F)cc1)N1CCC(N(C2CC2)S(=O)(=O)c2cccc(C(F)(F)F)c2)CC1 ?
True

Param item: O=C(c1cccc(OC(F)(F)F)c1)N1CCC(N(C2CC2)S(=O)(=O)c2cccc(C(F)(F)F)c2)CC1
True

Next compound: CS(=O)(=O)c1ccccc1C(=O)N1CCC(N(C2CC2)S(=O)(=O)c2cccc(C(F)(F)F)c2)CC1
False

And then CS(=O)(=O)c1ccc(F)cc1C(=O)N1CCC(N(C2CC2)S(=O)(=O)c2cccc(C(F)(F)F)c2)CC1 , what is it?
False

Another: CN(C)c1cccc(C(=O)N2CCC(N(C3CC3)S(=O)(=O)c3cccc(C(F)(F)F)c3)CC2)c1
True
